EXPERIMENT: gradient 5% acetonitrile 3 min, to 50% in 2 min, to 85% in 15 min, held 3 min, 100 µL/min
CONDITIONS_USED: column: Zorbax Extend-C18 2.1 x 50 mm; eluents: water / acetonitrile, 0.1% formic acid
Binarize RP-LC retention time at 700 s; below is y, at or above is n.

Example entries and their recorded answers appear below.
| COMPOUND | ASSIGNED_LABEL |
| --- | --- |
| Cc1ncc([N+](=O)[O-])n1CCOC(=O)c1ccc(F)cc1 | n |
| Nc1nc(N2CCc3ccccc3C2)ncc1C(=O)NCc1ccccc1 | n |
| COc1ccc2c(c1)C1(CCN(C(=O)c3ccc(F)cc3)C1)C(=O)N2C (stereo not given) | n |
| COc1ccc(NC(=O)c2cn3c(n2)CSCC3)cc1OC | y |
| CC(=O)Nc1nsc(N2CCC(C(=O)N3CCN(c4cc(C)ccc4C)CC3)CC2)n1 | n |

Please state whether RP-LC retention time is below 700 s for COc1cc(OC)cc(-c2nnc(Cc3nc(-c4cccc(C)c4)no3)o2)c1
n

Is RP-LC retention time strictly under 700 s for the entry Cc1cccc(NC(=O)C2CCCN(c3cc(=O)n(C)c(=O)n3C)C2)c1 (stereo not given) ?
n

Problem: For the compound CCn1cnc2ccc(-c3noc(Cc4ccc(OC)cc4)n3)cc21 , is RP-LC retention time under 700 s?
n
